Values were extracted from ChEMBL document CHEMBL3608288.

Tested on: Candida albicans
Test: Antifungal activity against Candida albicans after 16 hrs by microtiter broth dilution method
Assay type: functional
measurement-label: MIC

- molecule: "CCOC(=O)c1csc(/N=C/c2cc(/C=C/C(=O)c3ccc(C)cc3)cc(C(C)(C)C)c2O)n1"
  assayed-system: "Candida albicans"
  measurement-label: "MIC"
  result: "> 105 µM"
- molecule: "CN[C@H](CC(C)C)C(=O)N[C@H]1C(=O)N[C@@H](CC(N)=O)C(=O)N[C@H]2C(=O)N[C@H]3C(=O)N[C@H](C(=O)N[C@H](C(=O)O)c4cc(O)cc(O)c4-c4cc3ccc4O)[C@H](O)c3ccc(c(Cl)c3)Oc3cc2cc(c3O[C@@H]2O[C@H](CO)[C@@H](O)[C@H](O)[C@H]2O[C@H]2C[C@](C)(N)[C@H](O)[C@H](C)O2)Oc2ccc(cc2Cl)[C@H]1O [VANCOMYCIN]"
  assayed-system: "Candida albicans"
  measurement-label: "MIC"
  result: "> 157 µM"
- molecule: "CCOC(=O)c1csc(/N=C/c2cc(/C=C/C(=O)c3ccc(C)cc3)cc(C(C)C)c2O)n1"
  assayed-system: "Candida albicans"
  measurement-label: "MIC"
  result: "> 108 µM"
- molecule: "CCOC(=O)c1csc(/N=C/c2cc(/C=C/C(=O)c3ccco3)cc(C(C)(C)C)c2O)n1"
  assayed-system: "Candida albicans"
  measurement-label: "MIC"
  result: "> 110 µM"
- molecule: "COc1ccc(-c2csc(/N=C/c3cc(/C=C/C(=O)c4ccc(C)cc4)cc(C(C)(C)C)c3O)n2)cc1"
  assayed-system: "Candida albicans"
  measurement-label: "MIC"
  result: "> 97.9 µM"
- molecule: "CCOC(=O)c1csc(/N=C/c2cc(/C=C/C(=O)c3ccc(OC)cc3)cc(C(C)C)c2O)n1"
  assayed-system: "Candida albicans"
  measurement-label: "MIC"
  result: "> 104 µM"

* * *

Test system: Sporothrix schenckii
Assay: Antifungal activity against Sporothrix schenckii after 16 hrs by microtiter broth dilution method
Assay type: functional
Entries and their measured MIC follow.
measurement-label: MIC

- compound: "CCOC(=O)c1csc(/N=C/c2cc(/C=C/C(=O)c3ccco3)cc(C(C)(C)C)c2O)n1"
  assayed-system: "Sporothrix schenckii"
  result: "> 110 µM"
- compound: "C[C@@H]1[C@H](O)[C@@H](C)/C=C/C=C/C=C/C=C/C=C/C=C/C=C/[C@H](O[C@@H]2O[C@H](C)[C@@H](O)[C@H](N)[C@@H]2O)C[C@@H]2O[C@](O)(C[C@@H](O)C[C@@H](O)[C@H](O)CC[C@@H](O)C[C@@H](O)CC(=O)O[C@H]1C)C[C@H](O)[C@H]2C(=O)O [AMPHOTERICIN B]"
  assayed-system: "Sporothrix schenckii"
  result: "0.3 µM"
- compound: "CCOC(=O)c1csc(/N=C/c2cc(/C=C/C(=O)c3ccc(OC)cc3)cc(C(C)(C)C)c2O)n1"
  assayed-system: "Sporothrix schenckii"
  result: "> 102 µM"
- compound: "OC(Cn1cncn1)(Cn1cncn1)c1ccc(F)cc1F [FLUCONAZOLE]"
  assayed-system: "Sporothrix schenckii"
  result: "1.4 µM"
- compound: "COc1ccc(-c2csc(/N=C/c3cc(/C=C/C(=O)c4cccs4)cc(C(C)(C)C)c3O)n2)cc1OC"
  assayed-system: "Sporothrix schenckii"
  result: "> 93.9 µM"
- compound: "CN[C@H](CC(C)C)C(=O)N[C@H]1C(=O)N[C@@H](CC(N)=O)C(=O)N[C@H]2C(=O)N[C@H]3C(=O)N[C@H](C(=O)N[C@H](C(=O)O)c4cc(O)cc(O)c4-c4cc3ccc4O)[C@H](O)c3ccc(c(Cl)c3)Oc3cc2cc(c3O[C@@H]2O[C@H](CO)[C@@H](O)[C@H](O)[C@H]2O[C@H]2C[C@](C)(N)[C@H](O)[C@H](C)O2)Oc2ccc(cc2Cl)[C@H]1O [VANCOMYCIN]"
  assayed-system: "Sporothrix schenckii"
  result: "157 µM"
- compound: "CCOC(=O)c1csc(/N=C/c2cc(/C=C/C(=O)c3ccc(OC)cc3)cc(C(C)C)c2O)n1"
  assayed-system: "Sporothrix schenckii"
  result: "> 104 µM"
- compound: "CCOC(=O)c1csc(/N=C/c2cc(/C=C/C(=O)c3cccs3)cc(C(C)C)c2O)n1"
  assayed-system: "Sporothrix schenckii"
  result: "> 110 µM"
- compound: "COc1ccc(-c2csc(/N=C/c3cc(/C=C/C(=O)c4ccc(C)cc4)cc(C(C)(C)C)c3O)n2)cc1"
  assayed-system: "Sporothrix schenckii"
  result: "> 97.9 µM"
